Cited source for all entries: ChEMBL document CHEMBL2346607

experiment: Selectivity index, ratio of IC50 for human […] cells to IC50 for Plasmodium falciparum K1; type: toxicity, cell-based; details: MCR5 cells (cytotoxicity) versus Plasmodium falciparum K1, read-out: Ratio IC50
Threshold check on selectivity ratio: at or above 300 gives met, strictly below gives not met.

Example entries begin here.
C[C@@H]1C[C@H](C)C[C@H](C)[C@@H](O)CC(=O)O[C@H]([C@@H]2CCC[C@H]2C(=O)OCc2cn(-c3ccc(C(=O)O)cc3)nn2)C/C=C/C=C(/C#N)[C@H](O)[C@@H](C)C1 = not met
CCSC(=O)[C@@H]1CCC[C@H]1[C@@H]1C/C=C/C=C(/C#N)[C@H](O)[C@@H](C)C[C@H](C)C[C@H](C)C[C@H](C)[C@@H](O)CC(=O)O1 = met
C[C@@H]1C[C@H](C)C[C@H](C)[C@@H](O)CC(=O)O[C@H]([C@@H]2CCC[C@H]2C(=O)OCc2cn(C34CC5CC(CC(C5)C3)C4)nn2)C/C=C/C=C(/C#N)[C@H](O)[C@@H](C)C1 = not met

// query Hi team, for C[C@@H]1C[C@H](C)C[C@H](C)[C@@H](O)CC(=O)O[C@H]([C@@H]2CCC[C@H]2C(=O)OCCN(C)C)C/C=C/C=C(/C#N)[C@H](O)[C@@H](C)C1 , is the recorded selectivity ratio at or above 300?
// result met

---

assay: Selectivity index, ratio of IC50 for human […] cells to IC50 for Plasmodium falciparum FCR-3; assay type: toxicity, cell-based; settings: […] cells (cytotoxicity) versus Plasmodium falciparum FCR-3, read-out: Ratio IC50
Threshold check on selectivity ratio: at or above 1000 gives yes (1), strictly below gives no (0).

CCCCSC(=O)[C@@H]1CCC[C@H]1[C@@H]1C/C=C/C=C(/C#N)[C@H](O)[C@@H](C)C[C@H](C)C[C@H](C)C[C@H](C)[C@@H](O)CC(=O)O1 = no (0)
C[C@@H]1C[C@H](C)C[C@H](C)[C@@H](O)CC(=O)O[C@H]([C@@H]2CCC[C@H]2C(=O)OCCN(C)C)C/C=C/C=C(/C#N)[C@H](O)[C@@H](C)C1 = no (0)
C[C@@H]1C[C@H](C)C[C@H](C)[C@@H](O)CC(=O)O[C@H]([C@@H]2CCC[C@H]2C(=O)N[C@@H](C)C(=O)O)C/C=C/C=C(/C#N)[C@H](O)[C@@H](C)C1 = yes (1)

// query Hi team, for C[C@@H]1C[C@H](C)C[C@H](C)[C@@H](O)CC(=O)O[C@H]([C@@H]2CCC[C@H]2C(=O)OCc2cn(-c3cccnc3)nn2)C/C=C/C=C(/C#N)[C@H](O)[C@@H](C)C1 , is the recorded selectivity ratio at or above 1000?
// result no (0)

// query Same read-out for C#CCOC(=O)[C@@H]1CCC[C@H]1[C@@H]1C/C=C/C=C(/C#N)[C@H](O)[C@@H](C)C[C@H](C)C[C@H](C)C[C@H](C)[C@@H](O)CC(=O)O1 ?
// result no (0)

---

test system: Plasmodium falciparum; assay: Antimalarial activity against Plasmodium falciparum FCR-3 infected in human erythrocytes after 72 hrs by lactate dehydrogenase assay; format: functional, cell-based; conditions: FCR-3/Gambia
quantity-name: IC50 (µg/mL)
# unit: µg/mL | format: bare number

Study these solved cases before continuing.
C[C@@H]1C[C@H](C)C[C@H](C)[C@@H](O)CC(=O)O[C@H]([C@@H]2CCC[C@H]2C(=O)O)CCCCC(C#N)[C@H](O)[C@@H](C)C1 (stereo not given in full) = 0.13
CCOC(=O)[C@@H]1CCC[C@H]1[C@@H]1C/C=C/C=C(/C#N)[C@H](O)[C@@H](C)C[C@H](C)C[C@H](C)C[C@H](C)[C@@H](O)CC(=O)O1 = 0.0233
C=CCOC(=O)[C@@H]1CCC[C@H]1[C@@H]1C/C=C/C=C(/C#N)[C@H](O)[C@@H](C)C[C@H](C)C[C@H](C)C[C@H](C)[C@@H](O)CC(=O)O1 = 0.0392

// query Form field: IC50 recorded for COC(=O)[C@@H]1CCC[C@H]1[C@@H]1C/C=C/C=C(/C#N)[C@H](O)[C@@H](C)C[C@H](C)C[C@H](C)C[C@H](C)[C@@H](O)CC(=O)O1 with Plasmodium falciparum (enter value)
// result 0.01

// query Same read-out for C[C@@H]1C[C@H](C)C[C@H](C)[C@@H](O)CC(=O)O[C@H]([C@@H]2CCC[C@H]2C(=O)OCc2cn(C34CC5CC(CC(C5)C3)C4)nn2)C/C=C/C=C(/C#N)[C@H](O)[C@@H](C)C1 ?
// result 0.168
